Assay: chemical genetic growth profiling, strain panel (AID 1159580);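 note: tested at 20 µM; growth read once vehicle control cultures reached saturation at 30 °C; 1 = growth at the plate median or of vehicle wells; lower values mean less growth of the strain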
Conditions: S. cerevisiae deletion strains, growth OD, locus YPR163C, strain tif3, stronger effect = lower value
Among all 5,500 compounds or so, about 2,000 (36%) were called active. Not shown: some 18% with an inconclusive outcome. This is one part of the list.
PROPERTY_NAME: normalized growth

INSERT INTO assay_data (compound, property_name, measured) VALUES
  ('COc1ccc2c(c1)O[C@@H]1COc3cc(OC)c(OC)cc3[C@@H]1C2=O', 'normalized growth', 0.438),
  ('CCN(CC)CCCC(C)Nc1ccnc2cc(Cl)ccc12 (configuration not stated)', 'normalized growth', 0.999),
  ('COCCc1ccc(OCC(O)CNC(C)C)cc1 (configuration not stated)', 'normalized growth', 1.02),
  ('COc1cc2c(cc1OC)[C@@H]1C(=O)c3ccc(O)c(CC=C(C)C)c3O[C@@H]1CO2', 'normalized growth', 1.01),
  ('CC(N)C(=O)OC(C)(C)Cc1ccc(Cl)cc1 (configuration not stated)', 'normalized growth', 0.993),
  ('CCOC(=O)C(C)(C)Oc1ccc(Cl)cc1', 'normalized growth', 0.995),
  ('CCS(=O)CCSP(=O)(OC)OC (configuration not stated)', 'normalized growth', 1.01),
  ('OCCN1C[C@@H](O)[C@@H](O)C(O)C1CO (some centres not stated)', 'normalized growth', 1),
  ('Cc1cccc(C)c1OCC(C)N (configuration not stated)', 'normalized growth', 0.981),
  ('ClC1=C(Cl)C2(Cl)C3C(Cl)C=CC3C1(Cl)C2(Cl)Cl (configuration not stated)', 'normalized growth', 0.981),
  ('NCCSSCCN', 'normalized growth', 1.01),
  ('CN(C)c1ccc(C(=C2C=CC(=[N+](C)C)C=C2)c2ccc(N(C)C)cc2)cc1', 'normalized growth', 0.517);

* * *

Assay: chemical genetic growth profiling, strain panel (AID 1159580);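 note: tested at 20 µM; growth read once vehicle control cultures reached saturation at 30 °C; 1 = growth at the plate median or of vehicle wells; lower values mean less growth of the strain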
Conditions: S. cerevisiae deletion strains, growth OD, locus YCL029C, strain bik1, stronger effect = lower value
Hit rate of the full screen: of about 5,500 compounds, about 2,000 (36%) were called active. Not shown: some 18% with an inconclusive outcome. This is one part of the list.
normalized growth values, listed per item
PROPERTY_NAME: normalized growth

INSERT INTO assay_data (compound, measured) VALUES
  ('Cc1cc(O)c(C)c(O)c1C(=O)O', 0.976),
  ('CC(=O)OC(C)(C)[C@@H]1Cc2cc3ccc(=O)oc3cc2O1', 1.01),
  ('CN(C)CC/C=C1\c2ccccc2Sc2ccc(Cl)cc21', 1.03),
  ('CC(C)(OC(=O)c1ccccc1)[C@@H]1Cc2cc3ccc(=O)oc3cc2O1', 1.01),
  ('N=c1ccn2c(n1)O[C@@H]1C2O[C@H](CO)[C@H]1O (stereo partly drawn)', 1.01),
  ('COc1cc2c(cc1OC)C1C(=O)c3c(O)cc4c(c3OC1CO2)C=CC(C)(C)O4 (stereo not drawn)', 1.01),
  ('COc1cc2c(cc1OC)C1C(=O)c3c(OC)cc4c(c3OC1CO2)CCC(C)(C)O4 (stereo not drawn)', 0.987),
  ('S=c1nc[nH]c2nc[nH]c12', 0.976);

* * *

normalized growth values, listed per item
Test: chemical genetic growth profiling, strain panel (AID 1159580);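 note: tested at 20 µM; growth read once vehicle control cultures reached saturation at 30 °C; 1 = growth at the plate median or of vehicle wells; lower values mean less growth of the strain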
Settings: S. cerevisiae deletion strains, growth OD, locus YJL168C, strain set2, stronger effect = lower value
Screen size: about 5,500 compounds; about 2,000 (36%) were called active. Roughly 18% stayed inconclusive and do not appear here. Some of the results follow.
PROPERTY_NAME: normalized growth

INSERT INTO results (compound, measured) VALUES
  ('CC(C)CC(NC(=O)C(Cc1ccccc1)NC(=O)CNC(=O)CNC(=O)C(N)Cc1ccc(O)cc1)C(=O)O (stereo not given)', '1.01 (inactive)'),
  ('CC(=O)OCC(=O)[C@@]1(O)CCC2C3CCC4=CC(=O)CC[C@]4(C)C3C(=O)C[C@@]21C (stereo not given in full)', '1.03 (inactive)'),
  ('CCOC(=O)CCC(=O)O[C@H]1[C@H](O[C@@H]2[C@@H](C)[C@H](O[C@H]3C[C@@](C)(OC)[C@@H](O)[C@H](C)O3)[C@@H](C)C(=O)O[C@H](CC)[C@@](C)(O)[C@H](O)[C@@H](C)C(=O)[C@H](C)C[C@@]2(C)O)O[C@H](C)C[C@@H]1N(C)C', '0.985 (inactive)'),
  ('C[C@H]1OC(n2cc(F)c(=O)[nH]c2=O)C(O)[C@@H]1O (stereo not given in full)', '0.993 (inactive)'),
  ('C[C@H]1CC2C([C@@H](O)C[C@@]3(C)C2CC[C@]3(O)C(=O)CO)[C@@]2(C)C=CC(=O)C=C12 (stereo not given in full)', '1.01 (inactive)'),
  ('COc1ccc2c(C)cc(=O)oc2c1', '1.03 (inactive)'),
  ('O=C(O)c1cc2ccccc2c(Cc2c(O)c(C(=O)O)cc3ccccc23)c1O', '0.977 (inactive)'),
  ('O=C(O)c1c2ccccc2cc2ccccc12', '0.971 (inactive)'),
  ('CS(=O)(=O)c1ccc(C2=C(c3ccccc3)C(=O)OC2)cc1', '0.993 (inactive)'),
  ('CCCCNc1cc(C(=O)O)cc(S(N)(=O)=O)c1Oc1ccccc1', '0.982 (inactive)');

* * *

Assay: chemical genetic growth profiling, strain panel (AID 1159580);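 note: tested at 20 µM; growth read once vehicle control cultures reached saturation at 30 °C; 1 = growth at the plate median or of vehicle wells; lower values mean less growth of the strain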
Conditions: S. cerevisiae deletion strains, growth OD, locus YAL013W, strain DEP1
About 2,000 (36%) of roughly 5,500 compounds were called active. About 18% were inconclusive and are not listed. Cut-off read from the data, not from the text of the source: active = normalized growth mostly below about 0.91 (no sharp cut-off); inconclusive = no clear call, values can overlap the other calls; inactive = mostly above about 0.92. The list shows a part of the results.
Possible outcomes: active, inactive

INSERT INTO results (compound, class) VALUES
  ('COc1ccc2c(C)cc(=O)oc2c1', 'inactive'),
  ('COc1ccc(C2=C(C(C)=O)C(C)=NC(=S)C2C#N)cc1 (configuration not stated)', 'inactive'),
  ('CC(C)(C)c1ccc(NC(=O)Cc2cc(F)cc(F)c2)cc1', 'inactive'),
  ('O=C(O)c1cc2ccccc2[nH]1', 'inactive'),
  ('CCO/C=C1\SC(=S)N(CCc2ccccc2)C1=O', 'inactive'),
  ('CCOC(=O)CSC(=S)NCc1ccc(C)cc1', 'active'),
  ('Ic1ccc(I)s1', 'inactive'),
  ('NNC(N)=O', 'inactive'),
  ('CC12CCC3C(CCC4=CC(=O)CCC43CO)C1CCC2OC(=O)c1ccccc1 (configuration not stated)', 'inactive'),
  ('CCOC(=O)C(Cc1ccc(O)cc1)NC(C)=O (configuration not stated)', 'inactive'),
  ('COc1ccc2c(c1OC)C(=O)O[C@H]2[C@H]1c2cc3c(cc2CCN1C)OCO3', 'inactive'),
  ('CC(=O)c1c(O)c(C)c(O)c2c1oc1c(C(C)=O)c(O)c(C)c(O)c12', 'inactive'),
  ('COc1ccc(NC(=O)c2cc(C(F)(F)F)cc(C(F)(F)F)c2)cn1', 'inactive'),
  ('NC(=O)c1ccc[n+]([C@@H]2O[C@H](COP(=O)([O-])OP(=O)(O)OC[C@H]3O[C@@H](n4cnc5c(N)ncnc54)[C@H](O)[C@@H]3O)[C@@H](O)[C@H]2O)c1', 'inactive'),
  ('O=C(O)C1C2CCC(O2)C1C(=O)O (configuration not stated)', 'inactive'),
  ('CC(=O)NCCc1ccc(O)c(O)c1', 'inactive'),
  ('CCCCNc1cc(C(=O)O)cc(S(N)(=O)=O)c1Oc1ccccc1', 'inactive'),
  ('CS(=O)(=O)c1ccc(C2=C(c3ccccc3)C(=O)OC2)cc1', 'inactive'),
  ('OC1(c2ccc(Cl)cc2)CCN(Cc2c[nH]c3ccccc23)CC1', 'inactive'),
  ('CNC(=O)OCC[N+](C)(C)C', 'inactive'),
  ('Cc1c(O)c(C(=O)CC(C)C)c2oc3c(C(=O)CC(C)C)c(O)c(C)c(O)c3c2c1O', 'inactive'),
  ('N[C@@H](C(=O)O)c1ccccc1', 'inactive'),
  ('NCCSSCCN', 'inactive'),
  ('COc1ccc2c(c1OC)C(=O)O[C@H]2[C@@H]1c2cc3c(cc2CCN1C)OCO3', 'inactive'),
  ('COc1ccc2c(c1OC)C(=O)O[C@@H]2[C@H]1c2cc3c(cc2CCN1C)OCO3', 'inactive'),
  ('O=C(O)C1=CCCN(CCON=C(c2ccccc2)c2ccccc2)C1', 'inactive'),
  ('C[N+](C)(C)CCOC(N)=O', 'inactive'),
  ('CCC(=O)O[C@H]1CCC2C3CCC4=CC(=O)CC[C@]4(C)C3CC[C@@]21C (some centres not stated)', 'active'),
  ('Cc1c(C(=O)c2cccc3ccccc23)c2cccc3c2n1[C@H](CN1CCOCC1)CO3', 'inactive'),
  ('CC1(C)C(C=C(Cl)Cl)C1C(=O)OC(C#N)c1cccc(Oc2ccccc2)c1 (configuration not stated)', 'inactive'),
  ('CC(Oc1ccccc1)C(=O)N[C@@H]1C(=O)N2[C@@H]1SC(C)(C)[C@@H]2C(=O)O (some centres not stated)', 'inactive'),
  ('O=C(O)c1c2ccccc2cc2ccccc12', 'inactive'),
  ('CCC(=O)Nc1cc(F)ccc1C', 'inactive'),
  ('COc1cccc(OC)c1C(C)(O)C(OC)OC (configuration not stated)', 'inactive'),
  ('CC(C(=O)O)c1ccc(-c2ccccc2)c(F)c1 (configuration not stated)', 'inactive'),
  ('CC(=O)OCC[N+](C)(C)C', 'inactive'),
  ('O=C(O)c1nn(Cc2ccc(Cl)cc2Cl)c2ccccc12', 'inactive'),
  ('CNC(C)[C@H](O)c1ccccc1 (some centres not stated)', 'inactive'),
  ('CCOC(=O)c1c(C)cc(O)c(C=O)c1O', 'active'),
  ('CCC(C)C(=O)O[C@H]1[C@H](O)C2C(CN3CC(C)CCC3[C@@]2(C)O)C2C[C@]34O[C@]5(O)C(OC(=O)C(C)(O)C(C)O)CC[C@@]3(C)C5C(OC(C)=O)[C@@H](OC(C)=O)C4[C@@]21O (some centres not stated)', 'inactive'),
  ('C/C=C1\C(=O)CC2C3CCC4=CC(=O)CC[C@]4(C)C3CC[C@]12C (some centres not stated)', 'inactive'),
  ('COc1ccc2cc([C@H](C)C(=O)O)ccc2c1', 'inactive'),
  ('CC1=C(OS(=O)(=O)c2cc(C)c(Cl)cc2Cl)C(=O)CC1', 'inactive'),
  ('CC(C[N+](C)(C)C)OC(N)=O (configuration not stated)', 'inactive'),
  ('CC(C)(C)C(=O)Nc1ccc(F)cc1', 'inactive'),
  ('CCOC(=O)c1[nH]c(Cc2[nH]c(C(=O)OCC)c(C)c2C)c(C)c1C', 'inactive'),
  ('CCC(C)C(OC(C)=O)C(=O)OC1C(O)C2C3(C)C=CC(=O)C(C)(C)C3CC(OC(=O)C(O)C(C)C)C2(C)C23OC2CC(c2ccoc2)C13C (configuration not stated)', 'inactive');
